- system: recombinant full-length USP7 (Homo sapiens, UniProt Q93009)
- Construct: A 25 μl reaction volume containing recombinant full-length USP7 (62 pM)
- Sequence (Q93009 whole entry): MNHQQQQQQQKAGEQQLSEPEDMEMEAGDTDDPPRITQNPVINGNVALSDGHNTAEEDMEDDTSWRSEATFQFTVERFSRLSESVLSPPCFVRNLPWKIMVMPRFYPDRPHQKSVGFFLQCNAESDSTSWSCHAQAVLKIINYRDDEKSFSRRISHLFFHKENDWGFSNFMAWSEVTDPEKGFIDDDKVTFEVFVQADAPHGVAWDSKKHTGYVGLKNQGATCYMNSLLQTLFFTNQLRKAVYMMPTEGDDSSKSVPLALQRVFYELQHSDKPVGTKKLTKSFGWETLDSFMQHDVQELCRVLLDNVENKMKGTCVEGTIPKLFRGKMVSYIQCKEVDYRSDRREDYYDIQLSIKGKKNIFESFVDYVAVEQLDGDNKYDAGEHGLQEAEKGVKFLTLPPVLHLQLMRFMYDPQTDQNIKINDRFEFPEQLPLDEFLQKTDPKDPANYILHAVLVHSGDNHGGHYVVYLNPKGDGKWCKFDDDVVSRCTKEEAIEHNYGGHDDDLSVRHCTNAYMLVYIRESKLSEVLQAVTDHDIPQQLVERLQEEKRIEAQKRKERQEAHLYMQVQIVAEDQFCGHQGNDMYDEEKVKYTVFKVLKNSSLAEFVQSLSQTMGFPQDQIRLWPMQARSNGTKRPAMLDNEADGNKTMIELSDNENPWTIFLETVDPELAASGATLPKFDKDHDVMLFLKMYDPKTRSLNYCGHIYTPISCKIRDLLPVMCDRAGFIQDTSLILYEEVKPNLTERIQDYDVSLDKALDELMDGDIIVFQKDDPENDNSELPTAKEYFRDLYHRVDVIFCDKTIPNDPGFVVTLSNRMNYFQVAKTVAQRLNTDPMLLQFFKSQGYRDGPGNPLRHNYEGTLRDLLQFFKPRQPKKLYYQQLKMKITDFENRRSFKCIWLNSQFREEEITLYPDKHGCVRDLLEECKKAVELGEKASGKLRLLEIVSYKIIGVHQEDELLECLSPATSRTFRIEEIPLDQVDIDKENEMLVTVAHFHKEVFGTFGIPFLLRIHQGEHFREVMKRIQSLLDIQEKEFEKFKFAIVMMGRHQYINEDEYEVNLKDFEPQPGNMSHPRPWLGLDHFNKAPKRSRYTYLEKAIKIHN
- procedure.summary: USP7-mediated ubiquitin-rhodamine cleavage assay
- Assay type: biochemical
- test.settings: recombinant full-length USP7 62 pM; ubiquitin-rhodamine 100 nM; 30-minute incubation with compound, 1 hour reaction at room temperature; read-out: Potency: USP7 IC50
- Method: In the case of the USP7 deubiquitylating enzyme, the IC50 of an USP7 inhibiting compound is the concentration of the compound that inhibits 50% of the activity observed in a USP7-mediated ubiquitin-rhodamine cleavage assay. For the USP7 inhibitors disclosed herein, their potency was measured using the following test method. […]
pIC50: −log10 of the molar value. Counter-ions that a name gives are not always drawn.
Kindly supply the reported pIC50 values for the records listed here.

IN: # pIC50 lookup, item Cc1cc(Cl)cc(-c2ncnc3cc(CN4C(=O)CCC4=O)sc23)c1OC1CCNCC1
OUT: > 6.00

IN: # pIC50 lookup, item CC[C@@H](c1cc2nccc(-c3cc(Cl)cc(C)c3O[C@H]3CCCNC3)c2s1)N1C(=O)CCC1=O
OUT: > 6.00

IN: # pIC50 lookup, item Cc1cc(Cl)cc(-c2ccnc3cc(Cn4c(=O)ccn(CC(F)(F)F)c4=O)sc23)c1O[C@@H]1CCNC[C@H]1C
OUT: > 6.00

IN: # pIC50 lookup, item CCc1cc(Cl)cc(-c2ccnc3cc(CO)sc23)c1OCC1CNC1
OUT: 5.00 to 6.00

IN: # pIC50 lookup, item Cc1cc(Cl)cc(-c2ccnc3c(F)c(CN4C(=O)CCC4=O)sc23)c1OC1CCNCC1
OUT: > 6.00

IN: # pIC50 lookup, item Cc1cc(Cl)cc(-c2ncnc3cc(CN4C(=O)C5CC5C4=O)sc23)c1O[C@@H]1CNC[C@@H]1F (stereo partly drawn) [Example 351, dihydrochloride]
OUT: > 6.00
